target: T1, cynomolgus monkey CD3 on cynomolgus monkey PBMC or T cell line HSC-F (cynomolgus monkey, UniProt Q95LI5 22-198); experiment: flow cytometry on cynomolgus monkey PBMC
T1 construct: whole, on cells; Native CD3 complex on monkey T cells; also called cynomolgus monkey CD3 (PBMC); cynomolgus monkey CD3 antigen
T1 sequence (Q95LI5 22-198): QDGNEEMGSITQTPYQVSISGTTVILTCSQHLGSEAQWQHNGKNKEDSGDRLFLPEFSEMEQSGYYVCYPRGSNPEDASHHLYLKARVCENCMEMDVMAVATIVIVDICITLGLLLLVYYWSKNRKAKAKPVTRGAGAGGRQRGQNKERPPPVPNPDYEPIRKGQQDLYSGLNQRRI

{"binder": "C3E-7093 (CDR modified humanized anti-CD3 scFv) (scFv, C3E-7079 with asparagine for aspartic acid at position 52 of the VL; the change is already in the entry) scFv: GEVQLVESGGGLVQPGGSLRLSCAASGVTFNYYGMSWIRQAPGKGLEWVASITSSGGRIYYPDSVKGRFTISRENTQKTLYLQMNSLRAEDTAVYYCTLDGRDGWVAYWGQGTLVTVSSGGGGSGGGGSGGGGSNFMLTQPHSVSESPGKTVTISCKRNTGNIGSNYVNWYQQHEGSSPTTIIYRNDKRPDGVSDRFSGSIDRSSKSASLTISNLKTEDEADYFCQSYSSGFIFGGGTKLTVLGAAAGAGGDYKDDDDKGAAAHHHHHH", "binding result": "binds"}

The reported numbers originate from patent US20190359712A1.
